# Test system: CCRIS mutagenicity, Ames/micronucleus/aberration tests
# experiment: CCRIS mutagenicity studies
# protocol conditions: Test System: AMES SALMONELLA TYPHIMURIUM; Strain/Indicator: TA100; Metabolic Activation: RAT, LIVER, S-9, AROCLOR 1254; Method: STANDARD PLATE
Active and inactive are the calls of the source. The rule behind the calls is not given here.
Labels: active, inactive

compound	label class
O=C(O)/C=C/c1ccccc1	inactive
O=C1C=C2c3cc4ccccc4cc3-c3cccc(c32)C1=O	active
Cc1cc(N)c(C)cc1N	inactive
O=C(/C=C/c1ccccc1)c1ccc([N+](=O)[O-])cc1	inactive
CN(C)c1ccc(C(=C2C=CC(=[N+](C)C)C=C2)c2ccc(N(C)C)cc2)cc1	inactive
Nc1c(C(=O)O)cc([N+](=O)[O-])c2c1C(=O)c1ccccc1C2=O	active
Cc1c2ccccc2c(C)c2c1ccc1ccccc12	active
BrC(Br)Br	inactive
C1CCC2OCCOCCOC3CCCCC3OCCOCCOC2C1 (configuration not stated)	inactive
Cn1cnc2c(N)ncnc21	inactive
CC(C)CCC[C@@H](C)[C@H]1CC[C@H]2[C@@H]3CC=C4CCCC[C@]4(C)[C@H]3CC[C@]12C	inactive
CCCCCC(O)CC(=O)CCC1CCC(O)C(OC)C1 (configuration not stated)	active
C[N+]1(CCNP(=S)(NCC[N+]2(C)Cc3c(ccc4c3OCO4)[C@@H]3[C@H]2c2cc4c(cc2C[C@@H]3O)OCO4)NCC[N+]2(C)Cc3c(ccc4c3OCO4)[C@@H]3[C@H]2c2cc4c(cc2C[C@@H]3O)OCO4)Cc2c(ccc3c2OCO3)[C@@H]2[C@H]1c1cc3c(cc1C[C@@H]2O)OCO3 (some centres not stated)	inactive
CC(C)N(N)C(C)C	inactive
Oc1ccc2ccc3c4c(ccc3c2c1)[C@@H](O)[C@H](O)C=C4	active
CN1CCCC1=O	inactive
CCCCOCCOCCO	inactive
C1CCCCCC2OC2CCCC1 (configuration not stated)	inactive
O=C1c2ccc(O)cc2C(=O)c2ccc(O)cc21	inactive
Cc1c2ccc(CO)cc2nc2c1ccc1ccccc12	active
CO/N=C(\C(=O)N[C@@H]1C(=O)N2C(C(=O)O)=C(CSC(=O)c3ccco3)CS[C@H]12)c1csc(N)n1	inactive
O=C1c2ccccc2-c2ccccc21	inactive
CNP1(NC)=NP(NC)(NC)=NP(NC)(NC)=N1	inactive
Clc1ccccn1	active
COP(=S)(OC)Oc1ccc(N=O)c(C)c1	active
C=Cc1ccncc1	inactive
O=C1c2ccc(O)c(O)c2C(=O)c2c(O)ccc(O)c21	inactive
CC(C)c1cc(N)cc([N+](=O)[O-])c1N	inactive
CC(Oc1ccc(Cl)cc1Cl)C(=O)O (configuration not stated)	inactive
O=C(Nc1ccc2c(O)c(N=Nc3ccc(N=Nc4ccc(S(=O)(=O)O)cc4)cc3)c(S(=O)(=O)O)cc2c1)c1ccccc1	inactive
CCOP(=S)(OCC)SCn1c(=O)oc2cc(Cl)ccc21	inactive
O=C1c2ccccc2C([N+](=O)[O-])c2ccccc21	inactive
O=S1(=O)OC(c2cc(Br)c(O)c(Br)c2)(c2cc(Br)c(O)c(Br)c2)c2ccccc21	inactive
O=C(O)c1ccccn1	inactive
N#[N+]c1cccc2c1C(=O)c1ccccc1C2=O	active
C=CC(=O)OCCCCOC(=O)C=C	inactive
CCN1CCN(C(=O)N[C@@H](C(=O)N[C@@H]2C(=O)N3[C@@H]2SC(C)(C)[C@@H]3C(=O)O)c2ccccc2)C(=O)C1=O	inactive
CN(CC(=O)NN)c1ccc2ccccc2c1	inactive
Nc1cc([N+](=O)[O-])c(N)cc1Cl	inactive
O=C(/C=C/c1ccccc1)c1ccc(F)cc1	inactive
CNC(=O)N(C)c1nc2ccccc2s1	inactive
COCCOCCOP1(OCCOCCOC)=NP(OCCOCCOC)(OCCOCCOC)=NP(OCCOCCOC)(OCCOCCOC)=N1	inactive

---

# Tested on: CCRIS mutagenicity, Ames/micronucleus/aberration tests
# experiment: CCRIS mutagenicity studies
# protocol conditions: Test System: AMES SALMONELLA TYPHIMURIUM; Strain/Indicator: TA100; Metabolic Activation: RAT, LIVER, S-9, AROCLOR 1254; Method: PREINCUBATION
Active and inactive are the calls of the source. The rule behind the calls is not given here.
Labels: active, inactive

molecule	system under test	label class
O=C(O)/C=C/c1ccccc1[N+](=O)[O-]	CCRIS mutagenicity, Ames/micronucleus/aberration tests	inactive
N#[N+]c1cnc([O-])[nH]c1=O	CCRIS mutagenicity, Ames/micronucleus/aberration tests	active
C1COCOC1	CCRIS mutagenicity, Ames/micronucleus/aberration tests	inactive
CC(C)c1ccc2oc3nc(N)c(C(=O)O)cc3c(=O)c2c1	CCRIS mutagenicity, Ames/micronucleus/aberration tests	inactive
[Cl-].[Cl-].[NH2-].[NH2-].[NH2-].[NH2-].[Pt+2]	CCRIS mutagenicity, Ames/micronucleus/aberration tests	inactive
O=[N+]([O-])c1ccc(Nc2ccc(Nc3ccccc3)c(S(=O)(=O)O)c2)c([N+](=O)[O-])c1	CCRIS mutagenicity, Ames/micronucleus/aberration tests	active
CNc1ccc2ncc(C)nc2c1N	CCRIS mutagenicity, Ames/micronucleus/aberration tests	inactive
Fc1ccc2cccnc2c1	CCRIS mutagenicity, Ames/micronucleus/aberration tests	active
CC1=NCCc2c1[nH]c1cc(O)ccc21	CCRIS mutagenicity, Ames/micronucleus/aberration tests	inactive
CN(C)[C@@H]1C(=O)C(C(N)=O)=C(O)[C@@]2(O)C(=O)C3=C(O)c4c(O)cccc4[C@@](C)(O)[C@H]3[C@H](O)[C@@H]12	CCRIS mutagenicity, Ames/micronucleus/aberration tests	inactive
C=CCOC(=O)c1ccccc1C(=O)OCC=C	CCRIS mutagenicity, Ames/micronucleus/aberration tests	inactive
OC1CCCCC1	CCRIS mutagenicity, Ames/micronucleus/aberration tests	inactive
ClC(Cl)c1ccccc1	CCRIS mutagenicity, Ames/micronucleus/aberration tests	active
[CH3][Pb]([CH3])([CH3])[CH3]	CCRIS mutagenicity, Ames/micronucleus/aberration tests	inactive
Nc1cc([N+](=O)[O-])ccc1O	CCRIS mutagenicity, Ames/micronucleus/aberration tests	inactive
OB(O)O	CCRIS mutagenicity, Ames/micronucleus/aberration tests	inactive
O[C@@H]1C=Cc2c(ccc3c2sc2ccccc23)[C@H]1O	CCRIS mutagenicity, Ames/micronucleus/aberration tests	active
C=CCc1ccc(OC)c(OC)c1	CCRIS mutagenicity, Ames/micronucleus/aberration tests	inactive
C=C(C)[C@H]1CC=C(C)C(=O)C1	CCRIS mutagenicity, Ames/micronucleus/aberration tests	inactive
N#C[S-].N#C[S-].N#C[S-].N#C[S-].N#C[S-].N#C[S-].[K+].[K+].[Pt+4]	CCRIS mutagenicity, Ames/micronucleus/aberration tests	inactive
BrC(Br)Br	CCRIS mutagenicity, Ames/micronucleus/aberration tests	inactive
O=C(O)C1C(C(=O)O)C2(Cl)C(Cl)=C(Cl)C1(Cl)C2(Cl)Cl (centres undefined)	CCRIS mutagenicity, Ames/micronucleus/aberration tests	inactive
Cc1cnccn1	CCRIS mutagenicity, Ames/micronucleus/aberration tests	inactive
O[C@H]1c2cccc3ccc4cccc(c4c23)[C@@H]1O	CCRIS mutagenicity, Ames/micronucleus/aberration tests	inactive
C=CC1CC=CCC1 (centres undefined)	CCRIS mutagenicity, Ames/micronucleus/aberration tests	inactive
CCOCc1c(O)cc2c(c1O)C(=O)c1ccccc1C2=O	CCRIS mutagenicity, Ames/micronucleus/aberration tests	active
CCOc1ccc(NC(N)=O)cc1	CCRIS mutagenicity, Ames/micronucleus/aberration tests	inactive
O=C1CCCCC1	CCRIS mutagenicity, Ames/micronucleus/aberration tests	inactive
O.O.O=N[O-].O=N[O-].O=N[O-].O=N[O-].[K+].[K+].[Pt]	CCRIS mutagenicity, Ames/micronucleus/aberration tests	inactive

---

# Test system: CCRIS mutagenicity, Ames/micronucleus/aberration tests
# experiment: CCRIS mutagenicity studies
# protocol conditions: Test System: AMES SALMONELLA TYPHIMURIUM; Strain/Indicator: TA98; Metabolic Activation: RAT, LIVER, S-9, AROCLOR 1254; Method: PREINCUBATION
Active and inactive are the calls of the source. No rule for the calls is given here.
Outcome codes: T (active), F (inactive)

1. CC(=O)Nc1ccc2c(c1)Cc1ccccc1-2 T
2. Nc1cc([N+](=O)[O-])ccc1O F
3. O=C(O)/C=C/C=C/C(=O)O F

---

# System: CCRIS mutagenicity, Ames/micronucleus/aberration tests
# experiment: CCRIS mutagenicity studies
# protocol conditions: Test System: AMES SALMONELLA TYPHIMURIUM; Strain/Indicator: TA1535; Metabolic Activation: NONE; Method: PREINCUBATION
# Description: The CCRIS database contains chemical records with carcinogenicity, mutagenicity, tumor promotion, and tumor inhibition test results. It was developed by the National Cancer Institute (NCI). Data are derived from studies cited in primary journals, current awareness tools, NCI reports, and other sources. Test results have been reviewed by experts in carcinogenesis and mutagenesis. CCRIS provides historical information from the years 1985 - 2011. It is no longer updated. […]
The source made the active and inactive calls. No rule for the calls is given here.

compound	system under test	mutagenic call
O=Cc1ccco1	CCRIS mutagenicity, Ames/micronucleus/aberration tests	inactive; negative
CN(C)[C@@H]1C(=O)C(C(N)=O)=C(O)[C@@]2(O)C(=O)C3=C(O)c4c(O)cccc4[C@@](C)(O)[C@H]3[C@H](O)[C@@H]12	CCRIS mutagenicity, Ames/micronucleus/aberration tests	inactive; negative
CC(O)C#N (centres undefined)	CCRIS mutagenicity, Ames/micronucleus/aberration tests	inactive; negative

Reference source for all entries: PubChem BioAssay AID1259407
